Reference for the values: ChEMBL document CHEMBL4689842

# Tested on: U2OS
# test-description: Multiplex assay against U2OS
# Type: toxicity, cell-based
# particulars: human, 24 h, 10 µM, compound concentration 10 uM, replicate 2
Provide the reported Population Fragmented Nuclei (%) of each item.
Provide the reading as a plain figure in %.

## Input Observed Population Fragmented Nuclei (%) on U2OS for Cc1ccc(NC(=O)Nc2cc(C(F)(F)F)ccc2F)cc1Nc1ccc2c(c1)NC(=O)/C2=C\c1ccc[nH]1 , please.
## Output 6

## Input // same read-out, input: C=CC(=O)Nc1cc(-n2c(=O)ccc3cnc4ccc(-c5ccc(NS(C)(=O)=O)cc5)cc4c32)ccc1C
## Output 21

## Input // same read-out, input: CC(Cc1ccc(O)c(O)c1)C(C)Cc1ccc(O)c(O)c1 (stereo not drawn) [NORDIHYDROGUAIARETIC ACID]
## Output 2

## Input // same read-out, input: CCOc1ccn(-c2ccc(F)cc2)c(=O)c1C(=O)Nc1ccc(Oc2ccnc(N)c2Cl)c(F)c1
## Output 2

## Input // same read-out, input: Oc1cccc(-c2nc(N3CCOCC3)c3oc4ncccc4c3n2)c1
## Output 28

## Input // same read-out, input: CCCCCNC(=N)N/N=C/c1c[nH]c2ccc(OC)cc12.O=C(O)/C=C\C(=O)O [TEGASEROD MALEATE]
## Output 44

## Input // same read-out, input: N#CCNC(=O)c1ccc(-c2ccnc(Nc3ccc(N4CCOCC4)cc3)n2)cc1
## Output 31

## Input // same read-out, input: CN(c1cc(C(F)(F)F)nc(OCCC(=O)O)n1)c1cccc2c1CCC2
## Output 13

###

# System: U2OS
# test-description: Incucyte cell viability with U2OS; further: filed as whole numbers so only -1 and 0 and 1 occur
# Type: toxicity, cell-based
# particulars: human, 0 h, 10 µM, compound concentration 10 uM, replicate number 2, timepoint 0 hours
experimental-readout: Growth Rate
Output spec: single numeric token, no unit.

## Input Return reported Growth Rate; argument: CC(C)(C)c1ccc(C(=O)Nc2cn3cc(-n4ccnc4)ccc3n2)cc1.Cl.Cl
## Output 0

## Input // same read-out, input: CCN(Cc1ccc(Cl)cc1)c1ncc(C(=O)NCCCN2CCCC2=O)c(NC2CCCC2)n1
## Output 0

## Input // same read-out, input: c1ccc(-c2oc3ncnc(NC[C@@H]4CCCO4)c3c2-c2ccccc2)cc1
## Output 0

## Input // same read-out, input: O=C(NNS(=O)(=O)c1ccccc1)c1cc(-c2ccnnc2)ccc1F
## Output 0

## Input // same read-out, input: O=C(O)[C@H]1[C@H](Cn2nnc3ccccc3c2=O)CC[C@@H]1C(=O)c1ccc(OCCC2CCOCC2)cc1
## Output 0

###

# Test system: U2OS
# test-description: Multiplex assay against U2OS
# Format: toxicity, cell-based
# particulars: human, 24 h, 10 µM, compound concentration 10 uM, replicate 1
experimental-readout: Population Pyknosed Nuclei (%)
Express your answer as a number followed by its unit.

## Input Observed Population Pyknosed Nuclei (%) on U2OS for CC[C@@H]1C(=O)N(C)c2cnc(Nc3ccc(C(=O)NC4CCN(C)CC4)cc3OC)nc2N1C1CCCC1 [BI-2536] , please.
## Output 9%

## Input // same read-out, input: CC(C)[C@H](CO)Nc1nc(Nc2cccc(Cl)c2)c2ncn(C(C)C)c2n1 [PURVALANOLA]
## Output 24%

## Input // same read-out, input: Cl.NC[C@@H]1O[C@H](C23CC4CC(CC(C4)C2)C3)Cc2c1ccc(O)c2O
## Output 27%

## Input // same read-out, input: Cc1ccc(NC(=O)Nc2cc(C(F)(F)F)ccc2F)cc1Nc1ccc2c(c1)NC(=O)/C2=C\c1ccc[nH]1
## Output 7%
